biological target: Human GLP-1 receptor stably expressing cells (hGLP-1R/CHO-K1 cells) (Homo sapiens, UniProt P43220); construct: expressed in transfected cells; experiment: Measurement of GLP-1 receptor agonist activity (cAMP assay); type: cell-based; conditions: CHO-K1, maximum effect; cAMP with 2 nM human GLP-1 (7-36) = 100%, DMSO only = 0%; read-out: Emax
Sequence (P43220 24-463): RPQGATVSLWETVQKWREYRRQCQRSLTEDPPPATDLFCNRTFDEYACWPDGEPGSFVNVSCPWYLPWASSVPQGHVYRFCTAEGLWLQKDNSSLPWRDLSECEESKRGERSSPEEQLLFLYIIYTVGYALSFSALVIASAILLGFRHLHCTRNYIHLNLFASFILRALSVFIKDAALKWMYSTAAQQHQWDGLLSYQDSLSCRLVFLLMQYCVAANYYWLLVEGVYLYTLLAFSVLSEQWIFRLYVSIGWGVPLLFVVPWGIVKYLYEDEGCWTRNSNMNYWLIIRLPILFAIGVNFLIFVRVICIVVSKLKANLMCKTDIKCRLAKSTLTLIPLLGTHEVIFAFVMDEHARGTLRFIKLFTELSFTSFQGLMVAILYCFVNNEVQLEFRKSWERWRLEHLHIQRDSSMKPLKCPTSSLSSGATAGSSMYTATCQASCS

{"columns": ["molecule", "Emax"],
 "data": [
  ["C[C@H]1c2nc(OCc3ncc(Cl)cc3Cl)c(C(F)(F)F)cc2CCN1Cc1nc2ccc(C(=O)O)cc2n1C[C@@H]1CCO1 [Compound I-106]", "112%"],
  ["C[C@H]1c2nc(OCc3nc4ccccn4n3)c(C(F)(F)F)cc2CCN1Cc1nc2ccc(C(=O)O)cc2n1C[C@@H]1CCO1 [Compound I-163]", "83.3%"],
  ["C[C@H]1c2nc(OCc3ccc(Cl)cc3F)c(C(F)F)cc2CCN1Cc1nc2c(F)cc(C(=O)O)cc2n1C[C@@H]1CCO1 [Compound I-108]", "111%"],
  ["COc1cc(C(=O)O)cc2c1nc(CN1CCc3cc(Cl)c(OCc4cc(F)c(Cl)cc4F)nc3[C@@H]1C)n2C[C@@H]1CCO1 [Compound I-072]", "106%"],
  ["C[C@H]1c2c(cc(C(F)(F)F)c3c2O[C@@](C)(c2ccc(Cl)cn2)O3)CCN1Cc1nc2ccc(C(=O)O)cc2n1C[C@@H]1CCO1 [Compound I-027]", "119%"],
  ["COc1cc(C(=O)O)cc2c1nc(CN1CCc3cc(Cl)c(OCc4ccc(OC(F)F)cc4F)nc3[C@@H]1C)n2C[C@@H]1CCO1 [Compound I-071]", "110%"]
]}

###

molecular target: Human GLP-1 receptor stably expressing cells (hGLP-1R/CHO-K1 cells) (Homo sapiens); test: Measurement of GLP-1 receptor agonist activity (cAMP assay); settings: increase in cAMP concentration in hGLP-1R/CHO-K1 cells, 37° C. 1 hour
attribute-measured: EC50 (nM)

{"columns": ["smiles-text", "tested-target", "reported-measurement"],
 "data": [
  ["COc1cc(C(=O)O)cc2c1nc(CN1CCc3cc(Cl)c(OCc4ccc(Cl)cc4)nc3[C@@H]1C)n2C[C@@H]1CCO1", "Human GLP-1 receptor stably expressing cells (hGLP-1R/CHO-K1 cells) (Homo sapiens)", 0.0375],
  ["C[C@H]1c2nc(OCc3ccc(C#N)c4ccoc34)c(C(F)(F)F)cc2CCN1Cc1nc2ccc(C(=O)O)cc2n1C[C@@H]1CCO1", "Human GLP-1 receptor stably expressing cells (hGLP-1R/CHO-K1 cells) (Homo sapiens)", 0.0999],
  ["C[C@H]1c2nc(NCc3c(F)cc(Cl)cc3F)c(C(F)(F)F)cc2CCN1Cc1nc2c(F)cc(C(=O)O)cc2n1C[C@@H]1CCO1", "Human GLP-1 receptor stably expressing cells (hGLP-1R/CHO-K1 cells) (Homo sapiens)", 0.0889],
  ["COc1cc(C(=O)O)cc2c1nc(CN1CCc3cc(Cl)c(OCc4ccc(C)cc4)nc3[C@@H]1C)n2C[C@@H]1CCO1", "Human GLP-1 receptor stably expressing cells (hGLP-1R/CHO-K1 cells) (Homo sapiens)", 0.0605],
  ["C[C@@H]1c2nc(OCc3ccc(Cl)cc3F)ncc2CCN1Cc1nc2ccc(C(=O)O)cc2n1C[C@@H]1CCO1", "Human GLP-1 receptor stably expressing cells (hGLP-1R/CHO-K1 cells) (Homo sapiens)", 886]
]}
